Each item that follows carries a reported pIC50.
Test system: NCI-H157
experimentSummary: Antiproliferative activity against human NCI-H157 cells after 48 hrs by MTT assay
Type: functional, cell-based
setupConditions: NCI-H157, 48 h
pIC50: −log10 of the molar value.
assayReadout: pIC50

[[record]]
moleculesmiles = "CC(=O)[C@H]1CC[C@H]2[C@@H]3CC=C4C[C@@H](OC(=O)NCCNC(=O)OC(C)(C)C)CC[C@]4(C)[C@H]3CC[C@]12C"
result = "< 4.30"

[[record]]
moleculesmiles = "CC(=O)[C@H]1CC[C@H]2[C@@H]3CC=C4C[C@@H](OC(=O)NCCNC(=O)/C(C#N)=C/c5ccc([N+](=O)[O-])cc5)CC[C@]4(C)[C@H]3CC[C@]12C"
result = "< 4.30"

[[record]]
moleculesmiles = "CC(=O)[C@H]1CC[C@H]2[C@@H]3CC=C4C[C@@H](OC(=O)NCCNC(=O)CC#N)CC[C@]4(C)[C@H]3CC[C@]12C"
result = "< 4.30"

